Test system: PC-3 prostate
Assay: NCI-60 one-dose screen, 48 h
Settings: 10 µM unless noted
This is part of a sample that, as a whole, favours compounds with a hit. Of some 83,000 tested, about 20% had one in any assay. Activity calls are given as the source filed them. The calls were made as follows: active = growth percent below 10; inactive = the rest.
Hi there, use one of these labels in your reply, thanks! true for active, false for inactive

Prompt: Answer briefly: the call reported for CCN(CC)S(=O)(=O)c1cccc([N+](=O)[O-])c1 in this assay.
Completion: false

Prompt: Which result was noted for this molecule in the test: COc1ccc(CNC(=O)COc2ccc(/C=N/Nc3nc4ccccc4s3)cc2)cc1
Completion: false

Prompt: Please state the recorded outcome for this molecule: CC(C)CCSc1nc(NNC(N)=O)c(C#N)c(-c2ccccc2)n1
Completion: false

Prompt: Could you please tell me the result logged for O=S(=O)(c1ccc(N/N=C\c2ccccc2)cc1)c1ccc(N/N=C/c2ccccc2)cc1 in this assay?
Completion: false

Prompt: Test call, this molecule: COc1ccc(C(=O)c2cc3c(N)c(C(=O)Nc4cccc5ccccc45)sc3nc2C)cc1
Completion: false

Prompt: Test call for this molecule, please: Cc1ccccc1C(c1ccccc1)c1ccccc1C
Completion: false

Prompt: Kindly provide the recorded test outcome for the following molecule: CCc1nc(C)cn1C(=O)OCc1nc2nc(Cl)nc(N3CCOCC3)c2[nH]1
Completion: true

Prompt: Outcome logged for Fc1ccc2nc3c(cc2c1)CSc1nnc(-c2ccc[nH]c2=S)n1N3 in this assay:
Completion: false

----------
Tested on: PC-3 prostate
Experiment: NCI-60 one-dose screen, 48 h (100 = growth as untreated, 0 = no growth, -100 = all killed)
Conditions: 10 µM unless noted
Compounds without any hit were thinned out: in the full panel of roughly 83,000, 20% have a hit.
ASSAY METRIC: growth (%)
Note: unit % is implicit; provide only the numeric part.

Take a look at these entries with their results.
Prompt: # return recorded growth for entry COc1cc(CNC(=O)CCCCC[P+](c2ccccc2)(c2ccccc2)c2ccccc2)c(OC)c2c1OCO2
Completion: 63.2

Prompt: Entry COc1ccc(/C=N/NC(=O)c2cccc3cc[nH]c23)cc1O needs its growth filled in; supply it.
Completion: 31.5

Prompt: Give growth for the following molecule: CC(=O)Nc1ccc(C(=O)Nc2cc(-c3ccccc3)ccc2N)cc1
Completion: 64.7

Prompt: Query growth for Clc1nc(Cl)c2ncn(CC3(Cn4cnc5c(Cl)nc(Cl)nc54)COC3)c2n1
Completion: -98.4

Prompt: Please give the documented growth of COc1cccc(CCC(=O)c2cc3c(N)c(C(=O)Nc4cccc(Cl)c4C)sc3nc2C)c1
Completion: 18.8

---
Prompt: Give a short answer stating reported growth for N#CC1=C(N)Oc2c(ccc3ccccc23)C1c1ccc([N+](=O)[O-])cc1 (centres undefined) .
Completion: 65.4

Prompt: Please look at this molecule and report its growth: Cc1nn(-c2ccccc2)c(N2CCOCC2)c1/C=N/N=c1\sc2ccccc2n1C
Completion: 49

Prompt: Output growth of CCCNC(=O)Oc1ccc(/C(=C(\C)c2ccccc2)c2ccc(OCCN3CCCCC3)cc2)cc1
Completion: 57.1

Prompt: Provide only the value of recorded growth for COC(=O)C(c1ccccc1)C(CC(=O)c1ccccc1)c1ccccc1 (centres undefined)
Completion: 62.3

Prompt: Determine from records and report growth for O=C(N/N=C/c1cccnc1)c1ccccc1Nc1cccc(C(F)(F)F)c1
Completion: 88.8

Prompt: Find the measured growth of COc1cc2nc(-c3ccc(C#N)cc3)[nH]c(=O)c2cc1OC and report it.
Completion: 105

Prompt: Give the measured growth for CO[C@@H]1[C@H](N(C)C(=O)c2ccccc2)C[C@@H]2O[C@]1(C)n1c3ccccc3c3c4c(c5c6ccccc6n2c5c31)C(=O)NC4=O
Completion: 26.3

Prompt: Input Cn1c(COC(=O)NCCn2ccnc2)nc2c(N3CCOCC3)nc(-c3ccccc3)nc21 , output reported growth.
Completion: -74.7

Prompt: Tell us which growth value is on record for Cc1ccc2[nH]c(=S)n(-c3ccc(S(=O)(=O)Nc4ccc(Cl)nn4)cc3)c(=O)c2c1
Completion: 103

Prompt: Check the records and state growth for Cn1c(COC(=O)NCCc2ccccn2)nc2c(N3CCOCC3)nc(Cl)nc21
Completion: 18.4

Prompt: Using the record for C[C@]12CCc3nc(Nc4cccc(O)c4)sc3C1=CC[C@@H]1[C@@H]2CC[C@]2(C)/C(=N\NC(N)=S)CC[C@@H]12 , state its measured growth.
Completion: 20.1

Prompt: For the molecule COc1ccc(Cn2nc(-c3cc(OC)c(OC)c(OC)c3)c3c2CCc2cnoc2-3)cc1OC , give its reported growth.
Completion: 65

Prompt: Please indicate growth recorded for O=C(CN1CCOCC1)Nc1ccc2ncnc(Nc3ccc(Oc4cccc(F)c4)c(Cl)c3)c2c1
Completion: 59.3

Prompt: Give growth for the following molecule: O=c1[nH]c2c(s1)CCCC2CN1CCCCC1 (centres undefined)
Completion: 91.9

----------
Test system: ACHN renal
Assay: NCI-60 one-dose screen, 48 h (100 = growth as untreated, 0 = no growth, -100 = all killed)
Conditions: 10 µM unless noted
This is part of a sample that, as a whole, favours compounds with a hit. Of some 83,000 tested, about 20% had one in any assay.
Threshold check on growth: at or above 90% gives Fulfilled, strictly below gives Not fulfilled.

Prompt: # bool: growth of O=C(OCc1nc2nc(Cl)nc(N3CCOCC3)c2[nH]1)n1ccnc1 >= 90%
Completion: Not fulfilled

Prompt: Kindly determine if growth recorded for c1ccc(Cn2nc3c(c2-c2ccccc2)-c2oncc2CC3)cc1 is above or exactly 90%.
Completion: Fulfilled

Please examine the following record next.
Prompt: Item Nc1nc(N)nc(NCc2ccccc2)n1 with growth of 90% or above?
Completion: Fulfilled

----------
Examples of molecules with documented growth follow.
Tested on: SNB-75 CNS
Assay: NCI-60 one-dose screen, 48 h (100 = growth as untreated, 0 = no growth, -100 = all killed)
Details: 10 µM unless noted
The panel holds about 83,000 compounds, 20% with a hit somewhere; the sample as a whole holds those more often.
The reply should contain only the number, in %.

Prompt: Recall and state the measured growth for CN1C2CCC1CN(c1cnc(C(=O)Nc3cc(F)cc4cccnc34)cn1)C2 .
Completion: 92.5

---
Prompt: Quick one: give measured growth for O=c1[nH]nc(-c2ccc(Cl)cc2)cc1Cc1cccc([N+](=O)[O-])c1
Completion: 110

Prompt: Query growth for O=C1c2cccnc2C(=O)c2nc3cc(N4CCN(C5CC5)CC4)ccc3nc21
Completion: -64.7

Prompt: Query growth for O=C(Nc1ccc2ncnc(Nc3ccc(Oc4cccc(F)c4)c(Cl)c3)c2c1)c1ccc(CNCCO)cc1
Completion: 65.1

Prompt: Entry CCNC(=S)NNC(=O)c1cc2ccc1CCc1ccc(cc1)CC2 needs its growth filled in; supply it.
Completion: 89.8

Prompt: Look up and report measured growth for this entry: Clc1cc(Cl)cc(N2N=C(c3cccc(Nc4ccncc4)c3)CC2c2ccccc2)c1 (centres undefined)
Completion: 77.4

Prompt: For the molecule C=C1C(=O)O[C@H]2[C@H]1CC/C(COC(=O)CCCc1c[nH]c3ccccc13)=C\CC[C@@]1(C)O[C@@H]21 , give its reported growth.
Completion: 76.4

Prompt: Please supply the value of reported growth for the item O=S(=O)(c1ccc(N/N=C\c2ccccc2)cc1)c1ccc(N/N=C/c2ccccc2)cc1
Completion: 87

Prompt: Tell me measured growth for Nc1ncc(C#Cc2cncc(NC(=O)c3cccc(C(F)(F)F)c3)c2)c2cccnc12 please.
Completion: 60.7

Prompt: Please give measured growth of the following entry: CCN(CC)CCSCCCNc1c(C)cnc2cc(Cl)ccc12
Completion: 85.4

Prompt: Give a short answer stating reported growth for NC(=S)N/N=C(/c1ccccc1)c1ccccc1N .
Completion: 101

Prompt: Consider the molecule CC(=O)c1c(C)[nH]c(-c2nc3ccc(N4CCN(C)CC4)cc3[nH]2)c1-c1ccccc1 . State its measured growth.
Completion: -10.6

Prompt: Annotate the molecule O=C(N/N=C/c1cccnc1)c1ccccc1Nc1cccc(C(F)(F)F)c1 with its measured growth.
Completion: 83

Prompt: Quote growth reported for Cc1ccc2nc3c(cc2c1)CSc1nnc(-c2ccc[nH]c2=S)n1N3 please.
Completion: 91.4

Prompt: Kindly indicate its recorded growth. Item: CC(=O)O[C@H]1CC[C@@]2(C)[C@@H](CC[C@@H]3[C@@H]2CC[C@@]2(C)[C@H]3CC[C@]2(O)C(C)=O)C1
Completion: 94.9

Prompt: For Clc1nc(Nc2ccccc2)nc(Nc2ccccc2)n1 , write its growth.
Completion: 105

Prompt: Return reported growth. Input molecule: CC(=O)[C@@H]1CC[C@]2(C(=O)n3ccnc3)CC[C@]3(C)[C@H](CC[C@@H]4[C@@]5(C)Cc6c([nH]c7ccccc67)C(C)(C)[C@@H]5CC[C@]43C)[C@@H]12
Completion: 101

Prompt: Complete the entry with growth for Cc1ccc(/C=C/C(=O)c2ccc(N)cc2)c(C)c1
Completion: 97.8
